target_or_test_system: PR (Homo sapiens)
Sequence (P06401 whole entry): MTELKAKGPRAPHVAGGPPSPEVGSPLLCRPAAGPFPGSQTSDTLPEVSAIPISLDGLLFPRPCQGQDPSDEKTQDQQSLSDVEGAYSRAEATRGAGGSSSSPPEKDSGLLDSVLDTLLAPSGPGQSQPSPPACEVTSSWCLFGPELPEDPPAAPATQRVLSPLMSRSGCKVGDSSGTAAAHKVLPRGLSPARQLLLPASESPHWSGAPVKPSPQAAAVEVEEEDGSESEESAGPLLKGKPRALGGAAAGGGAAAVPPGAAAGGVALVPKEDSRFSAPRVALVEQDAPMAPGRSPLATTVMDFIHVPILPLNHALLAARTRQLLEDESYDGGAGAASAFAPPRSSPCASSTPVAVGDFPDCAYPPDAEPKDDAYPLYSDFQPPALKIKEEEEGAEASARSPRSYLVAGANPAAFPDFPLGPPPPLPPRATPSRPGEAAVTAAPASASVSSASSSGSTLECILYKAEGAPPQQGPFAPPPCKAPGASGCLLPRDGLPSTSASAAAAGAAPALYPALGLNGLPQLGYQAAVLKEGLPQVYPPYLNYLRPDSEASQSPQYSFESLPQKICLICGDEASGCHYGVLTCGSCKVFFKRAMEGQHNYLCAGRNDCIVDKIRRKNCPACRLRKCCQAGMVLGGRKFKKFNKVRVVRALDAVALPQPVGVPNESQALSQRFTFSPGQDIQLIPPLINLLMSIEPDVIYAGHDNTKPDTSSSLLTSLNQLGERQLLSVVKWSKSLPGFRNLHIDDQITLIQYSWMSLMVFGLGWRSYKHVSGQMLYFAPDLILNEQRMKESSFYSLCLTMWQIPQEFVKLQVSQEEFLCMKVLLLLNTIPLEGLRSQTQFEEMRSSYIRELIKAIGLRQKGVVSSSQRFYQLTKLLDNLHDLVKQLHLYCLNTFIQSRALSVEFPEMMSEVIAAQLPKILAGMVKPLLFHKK
method_summary: Co-transfection assay, PR agonist activity (CV-1 cells)
experimental_setup: agonist potency EC50
measured_metric: EC50

Could you tell me which EC50 is on file for CC1(C)OC(=S)Nc2ccc(C3=CCCCC3)cc21 ?
2.7 µM

Could you tell me which EC50 is on file for CC(=O)c1cccc(-c2ccc3[nH]c(=O)cc(C(F)(F)F)c3c2)c1 ?
> 10 µM

Could you tell me which EC50 is on file for CC1(C)OC(=O)Nc2ccc(C3CCCCCC3)cc21 ?
> 10 µM

Could you tell me which EC50 is on file for CC1(C)OC(=S)Nc2ccc(C3=CC(O)CCC3)cc21 (racemic) ?
> 10 µM

Could you tell me which EC50 is on file for CC(C)CN(CC(F)(F)F)c1cc2c(C(F)(F)F)cc(=O)[nH]c2cc1O ?
> 10 µM

Could you tell me which EC50 is on file for O=c1cc(C(F)(F)F)c2cc(-c3cccc([N+](=O)[O-])c3)ccc2[nH]1 ?
> 10 µM

Could you tell me which EC50 is on file for O=c1cc(C(F)(F)F)c2cc(-c3cccc(F)c3F)ccc2[nH]1 ?
> 10 µM

Could you tell me which EC50 is on file for CC1(C)OC(=O)Nc2ccc(C3=CCCCC3)cc21 ?
> 10 µM

Could you tell me which EC50 is on file for CCN(CC(C)(C)C)c1ccc2[nH]c(=O)cc(C(F)(F)F)c2c1 ?
> 10 µM

Could you tell me which EC50 is on file for FC(F)(F)c1cc(=S)[nH]c2ccc(C3CCCCC3)cc12 ?
> 10 µM

Could you tell me which EC50 is on file for CCCC(C)N(CCC)c1ccc2[nH]c(=O)cc(C(F)(F)F)c2c1 (racemic) ?
> 10 µM

Could you tell me which EC50 is on file for CC1(C)OC(=S)Nc2ccc(C3=CC(=O)CCC3)cc21 ?
> 10 µM

Could you tell me which EC50 is on file for N#Cc1cc(F)cc(-c2ccc3[nH]c(=O)cc(C(F)(F)F)c3c2)c1 ?
> 10 µM

----------
target_or_test_system: human AR (Homo sapiens)
Sequence (P10275 whole entry): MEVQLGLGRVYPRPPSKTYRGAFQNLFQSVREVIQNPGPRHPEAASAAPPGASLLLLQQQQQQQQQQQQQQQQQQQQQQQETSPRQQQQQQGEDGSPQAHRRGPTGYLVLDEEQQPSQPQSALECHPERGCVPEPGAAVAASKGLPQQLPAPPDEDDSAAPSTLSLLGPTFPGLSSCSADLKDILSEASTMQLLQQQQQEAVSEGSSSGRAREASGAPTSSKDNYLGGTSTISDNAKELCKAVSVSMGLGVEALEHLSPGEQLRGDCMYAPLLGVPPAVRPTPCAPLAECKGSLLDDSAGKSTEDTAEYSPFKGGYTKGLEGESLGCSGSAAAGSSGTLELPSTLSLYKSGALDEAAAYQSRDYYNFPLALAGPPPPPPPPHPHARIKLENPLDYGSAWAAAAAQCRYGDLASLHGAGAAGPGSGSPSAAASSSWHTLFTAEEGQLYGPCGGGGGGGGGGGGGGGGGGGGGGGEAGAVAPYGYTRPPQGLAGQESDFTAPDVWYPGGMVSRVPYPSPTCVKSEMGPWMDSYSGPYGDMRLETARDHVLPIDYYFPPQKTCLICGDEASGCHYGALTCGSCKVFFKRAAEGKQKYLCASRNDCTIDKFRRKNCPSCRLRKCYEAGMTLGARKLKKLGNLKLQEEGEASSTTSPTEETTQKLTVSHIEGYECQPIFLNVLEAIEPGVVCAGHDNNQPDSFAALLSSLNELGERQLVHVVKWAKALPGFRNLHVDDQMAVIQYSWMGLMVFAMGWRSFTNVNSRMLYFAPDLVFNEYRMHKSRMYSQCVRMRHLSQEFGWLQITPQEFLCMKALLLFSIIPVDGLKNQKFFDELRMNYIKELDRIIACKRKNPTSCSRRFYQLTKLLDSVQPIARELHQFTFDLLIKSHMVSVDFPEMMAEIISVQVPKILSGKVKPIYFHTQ
method_summary: Co-transfection assay, AR agonist activity (CV-1 cells, MTV-LUC reporter)
experimental_setup: CV-1 cells; agonist potency EC50
Hi there, I'd appreciate the recorded EC50 for every entry that follows.
Value expressed in nM; do not type the unit.

Could you tell me which EC50 is on file for C=CC1CCCCN1c1ccc2[nH]c(=O)cc(C(F)(F)F)c2c1 (racemic) ?
73

Could you tell me which EC50 is on file for CCC(CC)c1ccc2[nH]c(=O)cc(C(F)(F)F)c2c1 ?
233

Could you tell me which EC50 is on file for O=c1cc(C(F)(F)F)c2cc(N3CCCCC3CCOCc3ccccc3)ccc2[nH]1 (racemic) ?
26

Could you tell me which EC50 is on file for CCN(CC(C)(C)C)c1ccc2[nH]c(=O)cc(C(F)(F)F)c2c1 ?
2.8

Could you tell me which EC50 is on file for O=c1cc(C(F)(F)F)c2cc(C3=CCCCC3)ccc2[nH]1 ?
221

Could you tell me which EC50 is on file for O=c1cc(C(F)(F)F)c2cc(N3CCCCC3CO)ccc2[nH]1 (racemic) ?
21

Could you tell me which EC50 is on file for O=c1cc(C(F)(F)F)c2cc(N3CCCC[C@@H]3[C@@H](O)C(F)(F)F)ccc2[nH]1 ?
3

Could you tell me which EC50 is on file for C[C@@H]1C=C[C@H](C)N1c1ccc2[nH]c(=O)cc(C(F)(F)F)c2c1 ?
14

Could you tell me which EC50 is on file for O=c1cc(C(F)(F)F)c2cc(N(CC(Cl)Cl)CC(Cl)Cl)ccc2[nH]1 ?
3.4

Source listed as patent US7696246B2.
